# System: SF-268 CNS
# PROTOCOL_DESCRIPTION: NCI-60 one-dose screen, 48 h (100 = growth as untreated, 0 = no growth, -100 = all killed)
# MEASUREMENT_CONTEXT: 10 µM unless noted
# Procedure: Cells are grown in 96 well plates and exposed to the test compound for 48 hours. Compounds are tested at a single concentration, which is 10^-5 M for most compounds. The reported endpoint is percent growth (GI% or GIPRCNT), where numbers from 0 - 100% represent growth inhibition, and numbers from -100% - 0 represent cell death. For example, a value of 40 represents 60% growth inhibition. A value of 0 means no net growth occurred over the course of the experiment. […]
The panel holds about 83,000 compounds, 20% with a hit somewhere; the sample as a whole holds those more often.
MEASUREMENT_TYPE: growth (%)
Numbers only, in %.

Worked cases, growth given:
[
  {
    "MOLECULE": "O=C(O)c1cccc(S(=O)(=O)c2ccccc2)c1",
    "growth [%]": 103
  },
  {
    "MOLECULE": "O=[N+]([O-])c1ccc(NS(=O)(=O)c2ccccc2)c2ccccc12",
    "growth [%]": 42.3
  },
  {
    "MOLECULE": "C=C1C(=O)O[C@H]2[C@H]1CC/C(COC(=O)n1ccnc1C)=C\\CC[C@@]1(C)O[C@@H]21",
    "growth [%]": 101
  },
  {
    "MOLECULE": "COc1ccc(C2=NN(C(=O)COc3ccc(Cl)cc3)C(O)(c3cc(F)c(Cl)cc3Cl)C2)cc1OC (stereo unspecified)",
    "growth [%]": 4.05
  },
  {
    "MOLECULE": "NC(=S)NNC1CCCCC1",
    "growth [%]": 97.4
  },
  {
    "MOLECULE": "COc1ccc(-c2cc3ccc(N(C)C)cc3nc2N)c(F)c1",
    "growth [%]": 56.5
  }
]

Please give growth for each item listed below.
1. CC(C)CNCC(=O)Nc1ccc(Cc2ccc(NC(=O)CNCC(C)C)cc2)cc1
2. Cc1ccc2[nH]c3nc4cccnc4c(C)c3c2c1
3. CC1=C2C(=C[C@@](C)(CO)[C@@H]2OC(=O)N(C)CCN(C)C(=O)OC(C)(C)C)C(=O)[C@](C)(O)C12CC2
4. O=C1OC(N(Cc2ccc(Cl)cc2)c2ccccc2)c2ccccc21 (stereo unspecified)
5. C=C1C(=O)O[C@H]2[C@H]1CC/C(CNC(=O)/C1=C/CC[C@@]3(C)O[C@H]3[C@H]3OC(=O)C(=C)[C@@H]3CC1)=C\CC[C@@]1(C)O[C@@H]21
6. COc1ccc(-c2cnc(-c3ccc(F)cc3)[nH]2)cc1

Ans:
1: 59.7; 2: 92.3; 3: 4.84; 4: 105; 5: 98.5; 6: 92.6

Record growth for all entries; do not skip any.
1. COC(=O)c1oc2c(C(C)=O)c(OCCCN(C)C)ccc2c1C
2. COc1cc(-c2nc3ccccc3s2)ccc1OCc1nc2n(n1)S(=O)(=O)c1ccccc1N2C
3. CC(=O)Cc1cccnc1
4. O=C(Nc1ccc(-n2cc(-c3ccncc3)c(-c3ccc(O)c(Cl)c3)n2)cc1)c1cc(Cl)cc(Cl)c1
5. ClC1c2ccccc2CCc2ccccc21

Ans:
207
94.4
104
49.4
99.3

Would you be so kind as to report growth for each listed record?
1. Clc1ccc(CN2COc3c(ccc4cccnc34)C2)cc1Cl
2. C[C@H]1C=C(C[C@@H](O)CC#CC#CCCCCC[C@@H](O)[C@H]2CCC(=O)O2)C(=O)O1
3. CC(C)C(=O)Nc1nc2c(s1)CCCc1ccn(S(=O)(=O)c3ccccc3)c1-2
4. O=[N+]([O-])c1cccc(C2c3ccccc3Oc3ccccc32)c1

Ans:
[-3.19, 110, 99.2, 102]

Respectfully, I request growth for each entry included below.
1. COc1ccc2c(c1)OC(N(C(C)=O)C(C)=O)=C(C#N)C2c1ccc(F)cc1 (stereo unspecified)
2. COc1cc(NC(=O)c2cc(OC)c3ccn(C)c3c2)cc2c1C[C@]1(C)CC[C@@H](O)C(C)(C)[C@H]1O2
3. COc1ccc(-c2ccc(NC(=O)Nc3cccc(C(F)(F)F)c3)c(C)n2)cc1

Ans:
1. 54.1
2. 66.7
3. 74.5

Could you report growth for every entry in the following list?
1. C[C@]12O[C@H]1[C@H](O)c1c(cc(O)c3c1C(=O)c1cccc(O)c1-3)C2=O
2. O=C(Nc1ccc(-n2ccc3c(NC(=O)c4ccccc4)ncnc32)cc1)Nc1ccc(Cl)c(Cl)c1
3. COc1ccccc1S(=O)(=O)Nc1ccc2c3c(cc(-c4cnn(C5CC5)c4)nc13)C(=O)N2C
4. CC(=O)Nc1ccc(OC(=O)c2ccccc2O)cc1
5. CN(C)CC/C=C1\c2ccccc2Sc2ccc(Cl)cc21
6. CN1CCN(C(=O)/C=C/c2ccc([N+](=O)[O-])o2)CC1
7. COc1ccccc1S(=O)(=O)Nc1ccc2c3c(cc(-c4ccoc4)nc13)C(=O)N2C

Ans:
1. 107
2. -20.7
3. 84.3
4. 106
5. 68.8
6. 87.6
7. 84.1

====

# Test system: HT29 colon
# PROTOCOL_DESCRIPTION: NCI-60 one-dose screen, 48 h
# MEASUREMENT_CONTEXT: 10 µM unless noted
The panel holds about 83,000 compounds, 20% with a hit somewhere; the sample as a whole holds those more often. Activity calls are given as the source filed them. Rule for the calls: active = growth percent below 10; inactive = the rest.
// allowed return values: class 1 = active, class 0 = inactive

Known results for compounds:
[
  {
    "COMPOUND": "CSc1nc(N)nc2c1ncn2C",
    "CLASS": "class 0"
  },
  {
    "COMPOUND": "Nn1c(CN2CCN(c3cc4c(cc3F)c(=O)c(C(=O)O)cn4C3CC3)CC2)n[nH]c1=S",
    "CLASS": "class 0"
  },
  {
    "COMPOUND": "Clc1ccc(OCc2nc(-c3ccccc3)n[nH]2)c(Cl)c1",
    "CLASS": "class 0"
  },
  {
    "COMPOUND": "O=[N+]([O-])c1cccc(C2c3ccccc3Oc3ccccc32)c1",
    "CLASS": "class 0"
  },
  {
    "COMPOUND": "C=C1C(=O)O[C@H]2[C@H]1CC/C(COC(=O)n1ccnc1C)=C\\CC[C@@]1(C)O[C@@H]21",
    "CLASS": "class 0"
  },
  {
    "COMPOUND": "O=C(Nc1cccc([N+](=O)[O-])c1)c1ccc2ccccc2c1O",
    "CLASS": "class 0"
  }
]

Q: Test call for this compound, please: CCOC(=O)c1noc2c1CCc1cn(Cc3cc(OC)cc(OC)c3)cc1-2
Ans: class 0

Q: Check the results log: what was the call for O=S1(=O)N(CCNc2nccc(-c3c(-c4cccc(O)c4)nc4sccn34)n2)CCN1Cc1ccccc1 ?
Ans: class 0

Q: Tell me the recorded outcome of this test for COc1cc(-c2nc3sc(C)cn3c2/C=C2\C(=O)Nc3ccccc32)c(Br)c(OC)c1OC .
Ans: class 1

Q: Please let me know the test result on file for CC(Cc1cccc(C(F)(F)F)c1)NCCOC(=O)c1ccccc1 (configuration not stated) .
Ans: class 0

Q: Hi, sorry to bother you, what did the test record for CN(C)C(=O)Nc1nc2cc(Cl)c(Cl)cc2[nH]1 ?
Ans: class 1

Q: Name the outcome recorded for COc1cc2nc(C(=O)N3CCCCC3)cc(Nc3ccccc3)c2cc1OC in the assay.
Ans: class 0

====

# System: MCF7 breast
# PROTOCOL_DESCRIPTION: NCI-60 one-dose screen, 48 h
# MEASUREMENT_CONTEXT: 10 µM unless noted
The panel holds about 83,000 compounds, 20% with a hit somewhere; the sample as a whole holds those more often. The source made the active and inactive calls. Rule for the calls: active = growth percent below 10; inactive = the rest.
Your reply should match one of these outcome classes. active, inactive

[
  {
    "COMPOUND": "C=C1C(=O)O[C@H]2[C@H]1CC/C(C(=O)Nc1ccc(OC)c(C(N)=O)c1O)=C\\CC[C@@]1(C)O[C@@H]21",
    "CLASS": "inactive"
  }
]

Q: Which result was noted for this compound in the test: CC1OC(n2c3ccccc3c3c4c(c5c6ccccc6[nH]c5c32)C(=O)N(CCN[C@@H]2CCC[C@H]2N)C4=O)CC(O)C1O (stereo partly drawn)
Ans: active

Q: # outcome recorded in this test, key = COc1ccc(/C=C/C(=O)c2ccc(NC(=O)CSc3nnc(-c4cc(OC)c(OC)c(OC)c4)o3)cc2)cc1
Ans: active

====

# Tested on: DU-145 prostate
# PROTOCOL_DESCRIPTION: NCI-60 one-dose screen, 48 h (100 = growth as untreated, 0 = no growth, -100 = all killed)
# MEASUREMENT_CONTEXT: 10 µM unless noted
About 83,000 compounds went through this panel and 20% of them were active in at least one assay; those are over-represented in the sample as a whole.
So basically, the class depends on measured growth, and the ranges are bin 1 = under 40%, bin 2 = from 40% up to 80%, bin 3 = 80% and over

Would you please look over these solved cases?
[
  {
    "COMPOUND": "CCCCCCCCN(CCCCCCCC)CC(O)c1cc(-c2ccccc2)nc2ccc(OC)cc12 (stereo not given)",
    "ASSAYED_TARGET": "DU-145 prostate",
    "CLASS": "bin 3"
  },
  {
    "COMPOUND": "CC(=O)c1ccc2c(c1)C1C=CCC1[C@H](c1cc3c(cc1Br)OCO3)N2 (stereo not given in full)",
    "ASSAYED_TARGET": "DU-145 prostate",
    "CLASS": "bin 1"
  },
  {
    "COMPOUND": "COc1ccccc1S(=O)(=O)Nc1ccc2c3c(cc(-c4cnn(C)c4)nc13)C(=O)N2C",
    "ASSAYED_TARGET": "DU-145 prostate",
    "CLASS": "bin 2"
  },
  {
    "COMPOUND": "CCOC(=O)C1CSC(C)(C(=O)OCC)N1 (stereo not given)",
    "ASSAYED_TARGET": "DU-145 prostate",
    "CLASS": "bin 3"
  },
  {
    "COMPOUND": "COc1cc(Cn2cc3c(c2)-c2onc(CO)c2CC3)cc(OC)c1OC",
    "ASSAYED_TARGET": "DU-145 prostate",
    "CLASS": "bin 3"
  },
  {
    "COMPOUND": "O=C(N/N=C/c1ccccc1O)c1ccccc1O",
    "ASSAYED_TARGET": "DU-145 prostate",
    "CLASS": "bin 1"
  }
]

Q: Band for COc1ccc(C(=O)NC(=O)Nc2ccc3c(c2)NC(=O)/C3=C\c2[nH]c(C)c(CCC(=O)O)c2C)c(F)c1 ?
Ans: bin 2

Q: Assign a category based on measured growth for CS(=O)(=O)Nc1cccc(-c2ccc3ncnc(Nc4cncc(Cl)c4)c3c2)c1 and give only the class name.
Ans: bin 1

Q: Entry CCN(CC)CCNc1ccc([N+](=O)[O-])c2sc3cc(Cl)ccc3c(=O)c12 belongs to which category?
Ans: bin 2

Q: Which class does NC(N)=N/N=C/c1ccc([N+](=O)[O-])cc1 fall in?
Ans: bin 3
